- run.description: Cell toxicity assay (MTS) on replicon cells
- Type: cell-based
- conditions.used: human; MTS assay on replicon cells; read-out: CC50: drug dose necessary to reduce the MTS signal to 50% of that of no drug control
readout.label: CC50 at 2 days

INSERT INTO results (compound, test_result) VALUES
  ('NC(=O)c1ncn([C@@H]2O[C@H](CO)[C@@H](O)[C@H]2O)n1 [Ribavirin, reference compound]', '~500 µM'),
  ('O=c1nc(/N=C/N2CCOCC2)ccn1[C@@H]1O[C@H](CO)C(O)C1O (stereo in doubt) [XII, N^4-[Morpholinomethylene]arabinocytidine]', '> 10 µM');

# ---- query compound ----
Input line: May I ask what CC50 at 2 days has been recorded for Nc1ccn([C@@H]2O[C@H](CO)[C@@H](O)[C@@H]2O)c(=O)n1 [Cytarabine, reference compound] ?
Output line: > 10 µM
